- test_target: Bovine LOX (Bos taurus, UniProt P33072)
- Sequence (P33072 170-418): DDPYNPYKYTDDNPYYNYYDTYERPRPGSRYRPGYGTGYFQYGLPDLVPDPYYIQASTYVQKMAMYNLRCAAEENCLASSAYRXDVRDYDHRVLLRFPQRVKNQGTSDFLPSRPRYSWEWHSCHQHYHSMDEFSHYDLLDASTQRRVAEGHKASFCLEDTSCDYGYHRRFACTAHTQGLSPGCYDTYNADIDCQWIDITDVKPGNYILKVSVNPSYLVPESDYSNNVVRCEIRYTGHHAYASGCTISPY
Counter-ions that a name gives are not always drawn.
measurement_kind: IC50

# annotated cases, reported IC50 shown
[
  {
    "compound": "CC(C)c1nn(C/C(F)=C/CN)c(C(C)C)c1Cc1ccc(S(=O)(=O)N(C)C)c(Cl)c1 [Compound 60, hydrochloride]",
    "IC50": "< 10 µM"
  },
  {
    "compound": "Cc1c(Cc2ccc(S(=O)(=O)N(C)C)c(Cl)c2)c(C(C)O)nn1C/C(F)=C/CN (stereo not drawn)",
    "IC50": "< 10 µM"
  },
  {
    "compound": "Cc1nn(C/C(F)=C/CN)c(C)c1Cc1ccc(S(=O)(=O)N(C)C)c(C(F)(F)F)c1 [Compound 18, hydrochloride]",
    "IC50": "< 10 µM"
  },
  {
    "compound": "Cc1nn(C/C(F)=C/CN)c(C(=O)N(C)C)c1Cc1ccc(S(=O)(=O)N(C)C)cc1 [Compound 29, hydrochloride]",
    "IC50": "< 10 µM"
  }
]

GET IC50 where system = Bovine LOX (Bos taurus, UniProt P33072) and item = N#CCCN [BAPN, β-aminopropionitrile, reference compound]
< 1 µM

Name the recorded IC50 of Cc1nn(C/C(F)=C/CN)c(C(=O)O)c1Cc1ccc(S(=O)(=O)N(C)C)cc1 [Compound 30, hydrochloride] , assay system Bovine LOX (Bos taurus, UniProt P33072).
> 10 µM

Report value only: IC50, Bovine LOX (Bos taurus, UniProt P33072), CC(C)c1nn(C/C(F)=C/CN)c(C(C)O)c1Cc1ccc(S(=O)(=O)N(C)C)cc1Cl (stereo not drawn) [Compound 58, hydrochloride]
> 10 µM
